Assay: Elimination half life in rat at 0.2 mg/kg administered as iv cassette dose
Settings: in vivo, read-out: beta t1/2 (converted)
Measure: half-life

[[record]]
smiles_code = "O=C(C1CCN(c2cc(Oc3ccc(F)cc3F)ncn2)CC1)N1Cc2ccccc2C1"
measure = "half-life"
result = "3.7 h"


###

Experiment: Clearance in rat at 0.2 mg/kg administered as iv cassette dose
Conditions: in vivo
Measure: clearance (mL/min/kg)

[[record]]
smiles_code = "O=C(C1CCN(c2cc(Oc3ccc(F)cc3F)ncn2)CC1)N1Cc2ccccc2C1"
readout_number = 5.37


###

Molecular target: Muscarinic acetylcholine receptor M4 (Homo sapiens) (UniProt P08173)
Sequence (P08173 whole entry): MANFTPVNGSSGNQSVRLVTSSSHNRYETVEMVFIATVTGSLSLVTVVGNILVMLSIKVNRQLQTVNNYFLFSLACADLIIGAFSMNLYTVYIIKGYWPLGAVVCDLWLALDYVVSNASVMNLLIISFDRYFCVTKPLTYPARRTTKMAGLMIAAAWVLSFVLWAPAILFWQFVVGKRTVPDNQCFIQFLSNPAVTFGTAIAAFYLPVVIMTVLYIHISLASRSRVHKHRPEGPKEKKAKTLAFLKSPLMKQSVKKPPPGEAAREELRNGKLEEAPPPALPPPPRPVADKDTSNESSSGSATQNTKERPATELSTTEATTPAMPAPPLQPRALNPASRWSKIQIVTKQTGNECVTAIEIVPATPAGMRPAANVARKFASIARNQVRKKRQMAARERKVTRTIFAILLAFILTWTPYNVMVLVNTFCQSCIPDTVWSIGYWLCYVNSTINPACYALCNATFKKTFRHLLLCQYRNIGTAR
Test: Antagonist activity at recombinant human M4 receptor expressed in CHO cells co-expressing Gqi5 by calcium mobilization assay relative to acetylcholine
Assay type: functional, cell-based
# key: entry, value: Emin
Measure: Emin (%)

[[record]]
smiles_code = "O=C(C1CCN(c2cc(Oc3ccc(F)cc3F)ncn2)CC1)N1Cc2ccccc2C1"
target_or_test_system = "Muscarinic acetylcholine receptor M4 (Homo sapiens) (UniProt P08173)"
measure = "Emin"
readout_number = 18.4

[[record]]
smiles_code = "O=C(C1CCN(c2cc(Oc3cc(F)ccc3F)ncn2)CC1)N1CCc2ccccc2C1"
target_or_test_system = "Muscarinic acetylcholine receptor M4 (Homo sapiens) (UniProt P08173)"
measure = "Emin"
readout_number = 3.1

[[record]]
smiles_code = "O=C(C1CCN(c2cc(Oc3ccc(Cl)cc3F)ncn2)CC1)N1CCc2ccccc2C1"
target_or_test_system = "Muscarinic acetylcholine receptor M4 (Homo sapiens) (UniProt P08173)"
measure = "Emin"
readout_number = 3.1

[[record]]
smiles_code = "O=C(C1CCN(c2cc(Oc3ccc4c(c3)OCO4)ncn2)CC1)N1CCc2ccccc2C1"
target_or_test_system = "Muscarinic acetylcholine receptor M4 (Homo sapiens) (UniProt P08173)"
measure = "Emin"
readout_number = 4.1

[[record]]
smiles_code = "O=C(C1CCN(c2cc(Oc3cccc(F)c3F)ncn2)CC1)N1CCc2ccccc2C1"
target_or_test_system = "Muscarinic acetylcholine receptor M4 (Homo sapiens) (UniProt P08173)"
measure = "Emin"
readout_number = 3.1

[[record]]
smiles_code = "O=C(C1CCN(c2cc(Oc3ccc(Cl)cc3)ncn2)CC1)N1CCc2ccccc2C1"
target_or_test_system = "Muscarinic acetylcholine receptor M4 (Homo sapiens) (UniProt P08173)"
measure = "Emin"
readout_number = 3

[[record]]
smiles_code = "O=C(C1CCN(c2cc(Oc3ccc(F)cc3)ncn2)CC1)N1CCc2ccccc2C1"
target_or_test_system = "Muscarinic acetylcholine receptor M4 (Homo sapiens) (UniProt P08173)"
measure = "Emin"
readout_number = 3.5

